Data provenance: ChEMBL document CHEMBL5241054

Below are pIC50 values recorded for Aromatase (Homo sapiens, UniProt P11511).
Please keep in mind that pIC50 is minus log10 of the molar concentration; only the number is needed.

Solved entries (count: 5):
# compound, pIC50
measured = [
    ("C[C@]12C=CC(=O)C=C1[C@H](CCCCCc1ccccc1)C[C@@H]1[C@@H]2CC[C@]2(C)C(=O)CC[C@@H]12", 7.00),
    ("C[C@]12C=CC(=O)C=C1C(CCCCc1ccccc1)=C[C@@H]1[C@@H]2CC[C@]2(C)C(=O)CC[C@@H]12", 6.82),
    ("CCC1C[C@H]2[C@@H]3CC[C@H](O)[C@@]3(C)CC[C@@H]2[C@@]2(C)CCC(=O)C=C12 (some centres not stated)", 7.28),
    ("C[C@@H]1C[C@@H]2[C@H](CC[C@]3(C)[C@@H](O)CC[C@@H]23)c2ccc(O)cc21", 4.21),
    ("CCCCC[C@@H]1C[C@@H]2[C@H](CC[C@]3(C)C(=O)CC[C@@H]23)[C@@]2(C)C=CC(=O)C=C12", 7.27),
]

# query: pIC50 of entry `CCCCCCCC1=C[C@@]2(C)C(=CC1=O)CC[C@@H]1[C@@H]2CC[C@]2(C)C(=O)CC[C@@H]12`
6.22

# query: pIC50 of entry `C[C@]12CC[C@H]3[C@@H](CC(=O)C4=CCCC[C@@]43CO)[C@@H]1CC[C@@H]2O`
4.60
